# Tested on: CCRF-CEM leukemia
# test description: NCI tumour cell line growth inhibition, 48 h; in the data active = GI50 below about 0.43 µM; inactive = the rest
Entry note: the call must match one of active, inactive

Exercise: Which outcome was entered for the compound COc1ccc2nc(-c3cc4c([nH]c5ccccc54)c(-c4ccc(F)c(F)c4)n3)[nH]c2c1 in this test?
Solution: inactive

Exercise: Which outcome was entered for the compound COC1=C(OC)[C@]2(OC)c3c(O)c(OC)c4c(c3O[C@@]23O[C@@H](c2ccccc2)CC=C3C1=O)[C@@H](O)C[C@H](c1ccccc1)O4 in this test?
Solution: active

Exercise: Which outcome was entered for the compound Nc1ccc(-c2ccc(-c3nc4cc(Cl)c(Cl)cc4[nH]3)cc2)cc1 in this test?
Solution: inactive

====

# System: SK-MEL-5 melanoma
# test description: NCI tumour cell line growth inhibition, 48 h
measure name: TGI

Solved entries:
compound	TGI
NC(=O)OCc1c(-c2ccccc2)nn(-c2ccccc2)c1COC(N)=O	> 100 µM
FC(F)(F)c1cccc(C2SCc3nc4ccccc4n32)c1 (stereo not given)	> 100 µM
CCOC(=O)NC1CC2CCC1(OC)C=C2C (stereo not given)	> 100 µM
c1cc(NC2=NCCO2)c2c(c1)OCO2	> 100 µM

Give one value of TGI per listed compound.
1. COC(=O)[C@@H]1OC(C)(c2ccccc2)O[C@H]1C(=O)OC
2. Nc1ccc(-c2ccc(-c3nc4cc(Cl)c(Cl)cc4[nH]3)cc2)cc1
3. Nc1nc(-c2ccccc2)cc(-c2ccc(Cl)cc2)c1-c1nc2ccccc2o1

Solution:
["> 100 µM", "> 100 µM", "25.4 µM"]

Give one value of TGI per listed compound.
1. CCOC(=O)c1ccc(Nc2nc3cc(C(F)(F)F)ccc3nc2C(=O)OCC)cc1
2. CNC(=O)Nc1ccccc1
3. C=C1C(=O)O[C@H]2[C@H]1CC/C(COC(=O)NCc1cc(OC)cc(OC)c1)=C\CC[C@@]1(C)O[C@@H]21
4. C=C[C@H]1C=Cc2c(OC)cccc2[C@@H]1COP1(=S)NC(C)C(c2ccccc2)O1 (stereo not given in full)
5. CCn1c2ccccc2c2cc(NC(=O)c3c(NCCNCCO)nc(=O)[nH]c3C)ccc21
6. Cc1ccc(C2=NN(c3ccc(S(N)(=O)=O)cc3)C(c3cn(-c4ccccc4)nc3-c3ccccc3)C2)cc1 (stereo not given)

Solution:
89.3 µM
> 100 µM
12.2 µM
> 100 µM
> 100 µM
> 100 µM

Give one value of TGI per listed compound.
1. O=NN(CCCl)C(=O)N[C@H]1CCCC[C@@H]1Cl
2. COc1cccc(Nc2nc(N)nc(N)c2N=O)c1
3. CC1c2cc(c3c(c2O)CN([C@@H](C)C2CCCCC2)CO3)C(C)c2cc(c3c(c2O)CN([C@@H](C)C2CCCCC2)CO3)C(C)c2cc(c3c(c2O)CN([C@@H](C)C2CCCCC2)CO3)C(C)c2cc1c1c(c2O)CN([C@@H](C)C2CCCCC2)CO1 (stereo not given in full)
4. Cc1ccc(NC(=O)CC2C(=O)Nc3ccccc3S2=O)c(C)c1 (stereo not given)
5. CC(C)NC(=O)OCc1c(COC(=O)NC(C)C)c(-c2ccc[n+](COC(=O)C(C)(C)C)c2)n2c1CCC2
6. CCN1CCN(c2ccc(Nc3ncc4ccc5ncn(C(C)C)c5c4n3)nc2)CC1

Solution:
1: > 100 µM; 2: 39.1 µM; 3: 3.46 µM; 4: 38.1 µM; 5: > 100 µM; 6: 0.405 µM

Exercise: # returns recorded TGI (system: SK-MEL-5 melanoma) for Cc1ccc(C2SCC(=O)N2NC(=O)c2ccncc2)s1 (stereo not given)
Solution: > 100 µM
